systemName: STK33 (human)
measurementNotes: radiometric filter-binding kinase assay, Kinase HotSpot
runParameters: compound 0.5 µM; ATP 10 µM
observable: residual activity

Entry Oc1ccc(-c2nc(-c3ccc(F)cc3)c(-c3ccncc3)[nH]2)cc1 — recorded residual activity = 103%

The reported value for NC(=O)c1ccc(-c2nc(-c3ccccn3)c(-c3ccc4c(c3)OCCO4)[nH]2)cc1 in terms of residual activity is 98.3%

Memo: CC(C)[C@H](CO)Nc1nc(Nc2cccc(Cl)c2)c2ncn(C(C)C)c2n1 , reported residual activity: 74.4%

The molecule identified as Cc1cc2ncc(-c3ccccc3)nc2cc1C registered its residual activity at 94.1%

Entry O=C(Nc1ccc(Cl)cc1)c1ccccc1NCc1ccncc1 ; residual activity = 86.4%

Take each entry in turn and give its residual activity.
1. Cc1ccc(NC(=O)c2ccc(CN3CCN(C)CC3)cc2)cc1Nc1nc(-c2cccnc2)cs1
2. CSc1nc(-c2ccc(F)cc2)c(-c2ccnc(NC(C)c3ccccc3)c2)[nH]1 (stereo not given)
3. COc1ccc(-c2cnc3c(-c4ccsc4)cnn3c2)cc1
4. COc1cc2nccc(Oc3ccc(NC(=S)NC(=O)c4ccccc4C)cc3)c2cc1OC

Output:
["91.1%", "107%", "71.6%", "94.6%"]

GET /value?item= Nc1nc(Nc2ccc(S(N)(=O)=O)cc2)nn1C(=S)Nc1c(F)cccc1F &field=residual activity returns 35.1%
